system_tested: T1, BHRF1ΔC31 (Epstein-Barr virus, UniProt P03182)
T1 construct: Epstein-Barr virus BHRF1 (viral Bcl-2 homolog) lacking the C-terminal 31 residues (ΔC31); electron density seen for residues 2-158 in the Bim complex; Cloned into pET DUET with BamHI and EcoRI; also called recombinant C-terminally truncated form of BHRF1; recombinant BHRF1; source: E. coli BL21 DE3 pLysS, purified (nickel Hi-Trap chelating column, Superdex 200 gel filtration)
T1 sequence: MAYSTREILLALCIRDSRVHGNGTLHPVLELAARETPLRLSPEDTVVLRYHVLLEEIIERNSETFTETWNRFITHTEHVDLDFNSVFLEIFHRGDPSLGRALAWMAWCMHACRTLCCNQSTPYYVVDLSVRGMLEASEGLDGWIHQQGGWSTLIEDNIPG
assay_notes: ITC; VP-ITC (MicroCal), recombinant BHRF1ΔC31 with BH3 domain peptides; Kd values are the means of 3 experiments ± SD
protocol_conditions: both partners purified

[
  {
    "binder": "PQDASTKKLSECLKRIGDELDSNMELQR [human Bax BH3 28-mer peptide]",
    "prefix_operator": ">",
    "Kd [nM]": 1000
  },
  {
    "binder": "SESQEDIIRNIARHLAQVGDSMDRSIPPGLVNGL [human Bid BH3 34-mer peptide]",
    "prefix_operator": "=",
    "Kd [nM]": 110
  }
]

Data origin, for the record: paper PMC3009601
